Where do these numbers come from? They come from patent US4487768A.

- Test: in vivo
- Run Parameters: rat, po, 100 mg/kg
Property Label: dose excreted at 24 h (%)

>  <Compound>
[N-]=[N+]=NCC1=C(C(=O)O)N2C(=O)C(NC(=O)/C(=N\OCC(=O)O)c3nsc(N)n3)C2SC1 (stereo not shown)

>  <Property Label>
dose excreted at 24 h

>  <Unit Name>
%

>  <Data Value>
4.72

$$$$
